# condition info: in isopropanol, 318.2 K
value kind: solubility (mole fraction)
Write the number on its own, no unit after it.

Quick note, solubility (mole fraction) for CC1=CC(=O)C(C(C)C)=CC1=O landed at 0.0758

====

# condition info: in ethyl acetate, 308.2 K
value kind: solubility (mole fraction)
Provide a numeric answer; units are not to be included.

# solubility (mole fraction) (compound: CC1=CC(=O)C(C(C)C)=CC1=O ) is 0.0387

Cited source for all entries: BigSolDB 2.1
